Values from ChEMBL document CHEMBL4689842

Test system: U2OS
Test: Multiplex assay against U2OS
Assay type: toxicity, cell-based
Details: human, 24 h, 10 µM, compound concentration 10 uM, replicate 2
Outcome Measure: Population Apoptotic (%)
Output spec: scalar in %, unitless text.

Problem: Fill in: Population Apoptotic (%) of CCOc1cc2ncc(C#N)c(Nc3ccc(OCc4cccc(F)c4)c(Cl)c3)c2cc1NC(=O)/C=C/CN(C)C [HKI-357] is ___
Result: 86

Problem: Fill in: Population Apoptotic (%) of Cc1cc2c(cc1N1C(=O)c3cccc4c(CCCO)ccc(c34)C1=O)n(C)c(=O)n2C is ___
Result: 80

Problem: Fill in: Population Apoptotic (%) of CC(=O)c1cc(-c2cc(C(=O)NC3CC3)ccc2C)c2ncccn12 is ___
Result: 48

Problem: Fill in: Population Apoptotic (%) of CNC(=O)c1cc(Oc2ccc(NC(=O)Nc3cc(C(C)(C)C)nn3-c3ccc4ncccc4c3)c(F)c2)ccn1 [REBASTINIB] is ___
Result: 64

Problem: Fill in: Population Apoptotic (%) of CCOc1cc(N2CCC(O)CC2)ccc1Nc1ncc2c(n1)N(C1CCCC1)CCC(=O)N2C is ___
Result: 20

Problem: Fill in: Population Apoptotic (%) of Cl.Cl.Nc1ncnc2c1c(-c1cccc(OCc3ccccc3)c1)cn2[C@H]1C[C@@H](CN2CCC2)C1 is ___
Result: 92

Problem: Fill in: Population Apoptotic (%) of CCn1c(-c2nonc2N)nc2cnc(Oc3cccc(NC(=O)c4ccc(OCCN5CCOCC5)cc4)c3)cc21 [GSK-269962A] is ___
Result: 53

Problem: Fill in: Population Apoptotic (%) of O=C(O)c1ccc2cc(-c3ccc(O)c(C45CC6CC(CC(C6)C4)C5)c3)ccc2c1 [O-DEMETHYLATED ADAPALENE] is ___
Result: 0
